assay: Clearance in Wistar rat at 1 mg/kg, iv by LC-MS method; type: ADME, organism-based; parameters: dose 1 mg/kg, route intravenous; conditions: in vivo
VALUE_KIND: clearance (mL/min/kg)

A = CC(C)C[C@@H]1NC(=O)[C@H](CC(C)C)NC(=O)[C@H](CC(C)C)NC(=O)[C@@H](CC(C)C)NC(=O)[C@H](CC(C)C)NC(=O)[C@H](CC(C)C)NC1=O
B = CC(C)C[C@@H]1NC(=O)[C@H](CC(C)C)NC(=O)[C@H](CC(C)C)NC(=O)[C@H](CC(C)C)NC(=O)[C@H](CC(C)C)NC(=O)[C@H](CC(C)C)NC1=O
Prompt: Out of A and B , name the one with the higher clearance. In your reply, give the label of the chosen option.
Completion: A
